- Experimental target: T1, 4H3843-bH
- T1 chain: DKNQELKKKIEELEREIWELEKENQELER
- Measurement protocol: two-hybrid library CCNG1;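 also: natural log of median RNA to DNA barcode read ratio; higher means stronger binding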
I would appreciate it if you labelled entries True when interaction score is 0.8 or higher, otherwise False.

Example cases with answers are listed next.
Binder	Class name
DENQELEKKIEELKRENWELKKKIQELER [4H1373-bH]	False
DKNQELEKEIEELKRKNWELEKKIQELER [4H3189-bH]	False
DKNQELKKEIEELERENWELEKKIQELKR [4H3606-bH]	False
DENQELEKKIEELERKIWELKKKNQELKR [4H1328-bH]	True
DEIQELEKKIEELKRKNWELEKEIQELKR [4H370-bH]	True

Now consider the entry below.
Exercise: Decide: is the reported value of interaction score for DEIQELEKKIEELKREIWELKKENQELER [4H331-bH] equal to or greater than 0.8?
Solution: True
